Entries and their z-score
# test.system: NADPH oxidase 5 (Homo sapiens) (UniProt Q96PH1)
# Sequence (Q96PH1 whole entry, looked up): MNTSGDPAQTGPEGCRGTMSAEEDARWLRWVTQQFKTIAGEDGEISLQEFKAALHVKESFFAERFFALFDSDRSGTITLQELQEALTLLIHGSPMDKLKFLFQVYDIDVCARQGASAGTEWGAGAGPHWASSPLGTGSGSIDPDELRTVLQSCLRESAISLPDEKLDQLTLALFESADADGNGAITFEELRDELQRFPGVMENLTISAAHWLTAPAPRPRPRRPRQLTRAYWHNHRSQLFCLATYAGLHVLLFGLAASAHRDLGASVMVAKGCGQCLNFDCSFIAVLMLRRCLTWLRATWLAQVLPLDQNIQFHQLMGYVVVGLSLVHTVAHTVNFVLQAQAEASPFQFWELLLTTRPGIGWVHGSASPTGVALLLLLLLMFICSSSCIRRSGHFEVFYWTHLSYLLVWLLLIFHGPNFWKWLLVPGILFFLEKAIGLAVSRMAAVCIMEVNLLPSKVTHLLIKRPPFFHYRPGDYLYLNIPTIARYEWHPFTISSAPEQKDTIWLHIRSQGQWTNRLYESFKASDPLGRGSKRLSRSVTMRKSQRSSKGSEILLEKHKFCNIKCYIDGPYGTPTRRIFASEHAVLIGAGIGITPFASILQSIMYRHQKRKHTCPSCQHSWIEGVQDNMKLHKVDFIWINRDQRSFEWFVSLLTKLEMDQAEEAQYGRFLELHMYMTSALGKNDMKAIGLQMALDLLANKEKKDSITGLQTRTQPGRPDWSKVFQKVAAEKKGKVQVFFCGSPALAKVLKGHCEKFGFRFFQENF
# assay.notes: compounds shifting NOX5 Amplex Red fluorescence – cell-based, HEK293-NOX5, NOX inhibitor project, primary screen (AID 1161)
# experimental.context: HEK293-NOX5, ionomycin, 45 min, higher = more signal
I'd appreciate a reply containing only the number, no unit.

Please review the following examples before continuing.
compound: COc1ccccc1CN1C(=O)c2ccccc2[C@](Cc2ccccc2I)(C(=O)NC2CC2)[C@@H]1c1ccc(CO)cc1
z-score: -2.08
//
compound: CN1C(=O)C2C=CC(C(O)C(c3ccccc3)c3ccccc3)N(Nc3ccccc3)C2C1=O (stereo unspecified)
z-score: -2.44
//
compound: CCCC[C@H]1OB(O)C[C@H]2C1=C(COc1ccccc1)C[C@H]1C(=O)N(Cc3ccccc3)C(=O)[C@H]12
z-score: 0.245
//
compound: CN(C)CCCCNC(=O)[C@@H]1C[C@@H]2C(=O)N[C@@H](CCCCN)C(=O)N2[C@@H]1c1cccc(OCCO)c1
z-score: 1.43
//
compound: CCCCN1CC=CC23O[C@@H]4/C=C\CCCOC(=O)C4[C@H]2C(=O)N(C(C)CO)[C@@H]3C1=O (stereo partly specified)
z-score: 1.5

Entry CC(C)C(CO)N1C(=O)[C@@H]2[C@H]3C(=O)OCC=C[C@H]3OC23C=CCN(c2ccc4ccccc4c2)C(=O)[C@@H]13 (stereo partly specified) , system NADPH oxidase 5 (Homo sapiens) (UniProt Q96PH1): what z-score was measured?
1.74

Query for NADPH oxidase 5 (Homo sapiens) (UniProt Q96PH1): what z-score does the record show for C#C[C@H](O[Si](C#CCCCCCC)(C(C)C)C(C)C)c1ccccc1 ?
-1.97

Notebook entry, NADPH oxidase 5 (Homo sapiens) (UniProt Q96PH1) assay: z-score of COC(=O)[C@@]1(Cc2ccc(F)cc2)[C@H]2c3cc(C(=O)N4CCCC4)n(CCc4ccc(OC)c(Br)c4)c3C[C@H]2CN1C(=O)c1ccccc1 = ?
0.98

Form entry - test system: NADPH oxidase 5 (Homo sapiens) (UniProt Q96PH1); read-out: z-score; compound: CC(C)(C)OC(=O)CC[C@@]1(C(=O)N2CCOCC2)N=C(c2ccc(OCCCO)cc2)O[C@@H]1c1ccccc1N=[N+]=[N-]
-2.04

Item: NC(=O)[C@]1(Cc2ccccc2)N=C(c2ccc(OCCCO)cc2)O[C@@H]1c1ccccc1 Test system: NADPH oxidase 5 (Homo sapiens) (UniProt Q96PH1) Read-out: z-score Value: ?
0.575

Find z-score (NADPH oxidase 5 (Homo sapiens) (UniProt Q96PH1)) for the entry Cc1ccc(S[C@]2(C(=O)NCC(C)C)CC(=O)N(Cc3ccccc3)[C@@H]2c2ccc(CO)cc2)cc1
0.499

Could you share what z-score was measured for O=C1OCC=C[C@H]2OC34C=CCN(CCN5CCOCC5)C(=O)[C@H]3N(CCCCCCO)C(=O)[C@@H]4[C@@H]12 (stereo partly specified) , tested on NADPH oxidase 5 (Homo sapiens) (UniProt Q96PH1)?
1.92

Query the reported z-score for NADPH oxidase 5 (Homo sapiens) (UniProt Q96PH1); item: C=C(/C(=C/C[C@@H](OC(=O)c1ccncc1)c1ccc(CO)o1)c1cc(C(=O)OC)ccc1OC)C(C)C
-0.86

NADPH oxidase 5 (Homo sapiens) (UniProt Q96PH1) / z-score / CC(=O)n1cc(C(O)C2C=CC3C(=O)N(c4ccccc4)C(=O)C3N2Nc2ccc(C#N)cc2)c2ccccc21 (stereo unspecified) : value?
-3.01

Hello, I am looking for reported z-score with NADPH oxidase 5 (Homo sapiens) (UniProt Q96PH1) for O=C(CS)NCCCCCNC(=O)[C@H]1C[C@H]2C(=O)N[C@@H](Cc3ccccc3)C(=O)N2[C@H]1c1cccc(OCCO)c1 . Could you help?
0.687

For NADPH oxidase 5 (Homo sapiens) (UniProt Q96PH1), provide z-score of CC(c1ccccc1)C(O)C1C=CC2C(=O)N(Cc3ccccc3)C(=O)C2N1n1cnnc1 (stereo unspecified) please.
-1.02

Item: CC1CC/C=C\[C@H]2OC34C=CCN(c5ccc6ccccc6c5)C(=O)[C@H]3N(CCCCCO)C(=O)[C@@H]4C2C(=O)O1 (stereo partly specified) Test system: NADPH oxidase 5 (Homo sapiens) (UniProt Q96PH1) Read-out: z-score Value: ?
1.7

---

Measured composite z-score of individual entries
# Test system: glycogen synthase kinase-3 (GSK3A per assay name; protocol says GSK3B)
# assay.notes: compounds binding glycogen synthase kinase-3 – biochemical, small-molecule microarray, 635 nm fluorescence, GSK3A, primary screen (AID 1103); also: the record names both GSK3A and GSK3B
# experimental.context: fluorescence 635 nm, higher = more signal
Give your answer as a number; write no unit.

Example entries and their recorded answers appear below.
smiles.representation: CO[C@H]1O[C@H](CO)[C@@H](OC(=O)Nc2ccccc2-c2ccccc2)[C@H](OC(=O)Nc2ccccc2-c2ccccc2)[C@H]1OC(=O)Nc1ccccc1-c1ccccc1
numeric.value: 1.35
//
smiles.representation: O=C1O[C@@H](c2ccccc2)[C@@H](c2ccccc2)N2[C@@H](c3ccc(O)cc3)[C@]3(C(=O)Nc4ccccc43)[C@@H](C(=O)NC[C@H](O)c3ccccc3)[C@H]12
numeric.value: -1.28
//
smiles.representation: C#C[C@H](O[Si](C#CCCCCCC)(C(C)C)C(C)C)c1ccccc1
numeric.value: 0.173
//
smiles.representation: O=C1O[C@H](c2ccccc2)[C@H](c2ccccc2)N2[C@H]1[C@@H](C(=O)N1CCCCCCC1)[C@]1(C(=O)Nc3ccc(C#CC4=CCCCC4)cc31)[C@H]2c1ccc(O)cc1
numeric.value: 1.5
//
smiles.representation: C=CC[C@@]1(C(N)=O)N=C(c2ccc(OCCCO)cc2)O[C@@H]1c1ccccc1N=[N+]=[N-]
numeric.value: 0.649

Which composite z-score value is on record for CN(C)CCCC[C@@H]1NC(=O)[C@@H]2C[C@H](C(=O)NCc3ccc(F)cc3)[C@H](c3cccc(OCCO)c3)N2C1=O ?
0.833

For the compound shown here, C=C(COC)C(=O)CC[C@@H](OC(=O)c1ccccc1-c1ccccc1C(=O)O)c1ccc(CO)o1 , give the reported composite z-score.
0.464

---

Attribute: composite z-score
# test.system: Dihydroorotate dehydrogenase (quinone), mitochondrial (Plasmodium falciparum (isolate 3D7))
# assay.notes: inhibition of P. falciparum DHODH – biochemical, C-terminal His tag, absorbance 600 nm, primary screen (AID 1175);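 also: recombinant parasite enzyme with a five histidine tag at its C terminus; test concentration not given here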
# experimental.context: PfDHODH enzyme, DCIP absorbance 600 nm; higher = more signal, called active from +8 up or from −8 down
Number only, no unit.

# annotated cases, reported composite z-score shown
compound: C=CCOC(=O)[C@H]1[C@@H]2C(=O)O[C@@H](c3ccccc3)[C@@H](c3ccccc3)N2[C@@H](c2ccc(OCCOC(=O)[C@H]3C[C@H]4C(=O)N[C@@H](CCCC[N+](C)(C)C)C(=O)N4[C@H]3c3ccc(O)cc3)cc2)[C@]12C(=O)Nc1ccccc12
composite z-score: -2.24
//
compound: COc1c(C)cc(-c2cc3c(c(-c4ccccc4)n2)[Si](C(C)C)(C(C)C)O[C@H]3c2ccccc2)cc1C
composite z-score: -1.21
//
compound: O=C1C2C=CC(C(O)c3ccc(Br)cc3)N(n3cnnc3)C2C(=O)N1Cc1ccccc1 (configuration not stated)
composite z-score: -1.37
//
compound: O=C1C2C=CC(C(O)c3ccccn3)N(Nc3ccccc3F)C2C(=O)N1c1ccccc1 (configuration not stated)
composite z-score: 0.761
//
compound: O=C1NC(=O)C2C1C=CC(C(O)c1cccs1)N2Nc1ccccn1 (configuration not stated)
composite z-score: 0.566
//
compound: CCCC[C@H]1OB(O)C[C@H]2C1=C(C)Cn1c(=O)n(-c3ccccc3)c(=O)n12
composite z-score: -0.0299

Find the recorded composite z-score belonging to Cc1ccc(N2C(=O)c3ccccc3[C@@H](C(=O)NC(C)C)[C@@H]2c2ccc(CO)cc2)nc1 and report it.
-0.309

Give the measured composite z-score of C[C@H]1C2[C@H](Cc3ccccc3)NC(=O)[C@]23C(=O)N[C@H](Cc2ccccc2)C(=O)N[C@H](Cc2ccccc2)C(=O)NC/C=C/CCC/C=C/C3[C@@H]2O[C@]12C (some centres not stated) .
0.453

Given the entry COC(=O)[C@@]1(Cc2ccc(F)cc2)[C@H]2c3cc(C(=O)N4CCCC4)n(Cc4ccc(Cl)c(C(F)(F)F)c4)c3C[C@H]2CN1C(=O)c1ccccc1 , report its measured composite z-score.
0.0979

---

# assay.notes: probe aLefty2 binding to arrayed compounds – biochemical, biotinylated probe, 635/667 nm fluorescence, primary screen (AID 1094);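 also: score merges spot fluorescence near 667 nm with spot signal-to-noise ratio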
# experimental.context: small-molecule microarray, higher = more signal
// reported composite z-score for each item listed
// return a plain number; no unit text

compound: C[N+](C)(C)CCCCNC(=O)[C@H]1C[C@H]2C(=O)N3CCC[C@H]3C(=O)N2[C@H]1c1ccc(O)cc1
composite z-score: -0.101
//
compound: C=C(COC)/C(=C/C[C@H](OC(C)=O)c1ccccc1OCCO)c1cnc2ccccc2c1
composite z-score: -0.171
//
compound: COCCOC(=O)N1C(=O)[C@@]2(c3cc(C#CC4=CCCCC4)ccc31)[C@H](c1ccc(OCCO)cc1)N1[C@H](c3ccccc3)[C@H](c3ccccc3)OC(=O)[C@H]1[C@@H]2C(=O)Nc1nc2ccccc2s1
composite z-score: -0.0242
//
compound: COc1ccc([Si](C)(C)[C@@H]2[C@@H](CCO)O[C@]3(C(=O)N(Cc4ccc(N5C(=O)c6cccc7cccc5c67)cc4)c4ccccc43)[C@H]2C)cc1
composite z-score: -0.0728
//
compound: O=C1NC(=O)C2C1C=CC(C(O)c1cccs1)N2Nc1ccccn1 (configuration not stated)
composite z-score: 0.305
//
compound: C/C=C/[C@H](CCn1cc([C@H](O)c2ccccc2)nn1)[Si](C)(C)c1ccc(OC)cc1
composite z-score: -0.139

Query compound follows.
What value of measured composite z-score is listed for C=C(COC)C(=O)CC[C@@H](OC(=O)c1ccccc1-c1ccccc1C(=O)O)c1ccc(CO)o1 ?
-0.215
